# System: 786-0
# measurement-protocol: NCI tumour cell line growth inhibition, 48 h
Activity calls are given as the source filed them. Rule as the data show it: active = GI50 up to about 1.1 µM and inactive = higher.
assay-endpoint: GI50

Examples from the recorded data:
>  <compound>
C=CCCCCCCCCC(=O)NS(=O)(=O)c1ccccc1

>  <tested-system>
786-0

>  <GI50>
> 100 µM (inactive)

$$$$
>  <compound>
CN1c2ccccc2C(=O)NC12CCN(CC1COc3ccccc3O1)CC2 (centres undefined)

>  <tested-system>
786-0

>  <GI50>
69.7 µM (inactive)

$$$$
>  <compound>
C=CCc1cc(OC)c2c(c1)C(OC)CC(c1ccc(OC)c(OC)c1)O2 (centres undefined)

>  <tested-system>
786-0

>  <GI50>
> 100 µM (inactive)

$$$$
>  <compound>
O=C1N/C(=N/N=C\C(O)C(O)C(O)C(O)CO)N/C1=C\c1ccc(Cl)cc1 (centres undefined)

>  <tested-system>
786-0

>  <GI50>
5.9 µM (inactive)

$$$$

Please give GI50, item by item, for the list that follows.
1. COC1=CC(=Nc2c(Cl)cc(Cl)cc2OC(=O)c2ccc([N+](=O)[O-])cc2)C=C(OC)C1=O
2. CCCCCCCCCC/C=C/CC(=O)SCCNC(=O)CCNC(=O)[C@@H](O)C(C)(C)COP(=O)(O)OP(=O)(O)OCC1OC(n2cnc3c(N)ncnc32)C(O)C1OP(=O)(O)O (some centres undefined)
3. CSCCCS/C1=C/CCCCCCCCCC1
4. Cc1ccc(Nc2ccc(Nc3ccc(C)cc3S(=O)(=O)O)c3c2C(=O)c2ccccc2C3=O)c(S(=O)(=O)O)c1
5. c1ccc(-c2cc(-c3cccs3)c(-c3cccs3)o2)cc1

Reply |
14.8 µM (inactive)
> 10 µM (inactive)
> 100 µM (inactive)
> 100 µM (inactive)
> 100 µM (inactive)

###

# Tested on: SF-295
# measurement-protocol: NCI tumour cell line growth inhibition, 48 h
The source made the active and inactive calls. Rule as the data show it: active = GI50 up to about 1.1 µM and inactive = higher.
Permitted responses: 1 for active, -1 for inactive

Consider the worked cases shown below.
>  <compound>
CN(C)CCNC(=O)c1cccc2[nH]c(-c3ccc(Cl)cc3)nc12

>  <tested-system>
SF-295

>  <classification>
-1

$$$$
>  <compound>
CC[N+](C)(CC)CCNC(=O)C(O)(c1ccccc1)c1ccccc1

>  <tested-system>
SF-295

>  <classification>
-1

$$$$

Ask | I would be grateful if you could indicate the recorded call for `Cc1nnc(S(=O)(=O)c2ccc(/N=N/c3c(N)nc(N)nc3N)cc2)s1` .
Reply | -1

Ask | Would you mind telling me which call this test gave O=C1CSC(c2c(O)ccc3ccccc23)N1n1c(S)nnc(/C=C/c2c(O)ccc3ccccc23)c1=O (stereo not given) ?
Reply | -1

Ask | What did this assay record as the result for Cc1cc(O)c2c(c1)C(=O)C(c1c(C)cc3c(c1O)C(=O)C1OC1C3=O)=CC2=O (stereo not given) ?
Reply | -1

Ask | Please state the recorded outcome for this compound: `CN(N=O)C(=O)Nc1c[nH]c(=O)[nH]c1=O`
Reply | -1

Ask | Query: recorded result category for `COc1cc(C(=O)N(C(=O)N2CCCCC2)c2ccccc2)cc(OC)c1OC` in this test
Reply | -1

Ask | Per the records of this test, what outcome belongs to CC(C)=CCC/C(C)=C/CCC(C(=O)COCc1ccccc1)P1(=O)OC(C)(C)CN1C(C)(C)C (stereo not given) ?
Reply | -1

Ask | For `Cc1c2cc[n+](Cc3ccc(I)cc3)cc2c(C)c2c1[nH]c1ccccc12` , what call appears in the results of this test?
Reply | 1

Ask | Which outcome did this test record for the compound CC(=O)C1C(=O)C(=O)N(c2ccccc2)C1=O (stereo not given) ?
Reply | -1
